Target: Calcium/calmodulin-dependent protein kinase kinase 2 (Homo sapiens)
Sequence (Q96RR4 2-588 limits assumed): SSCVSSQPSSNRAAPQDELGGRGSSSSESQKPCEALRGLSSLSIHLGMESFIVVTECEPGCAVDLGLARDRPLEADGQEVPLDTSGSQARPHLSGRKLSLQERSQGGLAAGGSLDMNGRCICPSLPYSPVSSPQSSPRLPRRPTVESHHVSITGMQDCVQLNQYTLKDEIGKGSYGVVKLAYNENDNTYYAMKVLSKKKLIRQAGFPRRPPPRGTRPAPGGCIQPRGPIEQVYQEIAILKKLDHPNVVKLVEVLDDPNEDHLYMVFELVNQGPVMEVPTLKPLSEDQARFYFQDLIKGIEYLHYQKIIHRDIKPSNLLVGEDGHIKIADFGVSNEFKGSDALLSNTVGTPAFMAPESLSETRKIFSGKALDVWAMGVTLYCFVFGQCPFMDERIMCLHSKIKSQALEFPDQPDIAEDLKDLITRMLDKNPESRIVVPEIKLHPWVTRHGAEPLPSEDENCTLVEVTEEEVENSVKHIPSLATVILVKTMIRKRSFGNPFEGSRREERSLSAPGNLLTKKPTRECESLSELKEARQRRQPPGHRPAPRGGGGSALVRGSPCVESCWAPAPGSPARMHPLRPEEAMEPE
PROPERTY: ΔTm (°C)

COMPOUND: Brc1c(Br)c(Br)c2[nH]nnc2c1Br
REPORTED_RESULT: -0.5
//
COMPOUND: CCCCc1c(-c2ccc(O)cc2)[nH]c2nccnc12
REPORTED_RESULT: 1.8
//
COMPOUND: COc1ccc2c(c[n+](C)c3c4cc5c(cc4ccc23)OCO5)c1OC [CHELERYTHRINE CHLORIDE]
REPORTED_RESULT: -1.6
//
COMPOUND: Nc1n[nH]c2nnc(-c3c(-c4ccccc4)nn4ccccc34)cc12
REPORTED_RESULT: 0.3
//
COMPOUND: C[C@@H]1C[C@H]2O[C@@H]2/C=C\C=C\C(=O)Cc2c(Cl)c(O)cc(O)c2C(=O)O1
REPORTED_RESULT: -0.1
//
COMPOUND: C#Cc1cccc(Nc2ncnc3cc(OCCOC)c(OCCOC)cc23)c1
REPORTED_RESULT: 0.1
//
COMPOUND: O=S(=O)(c1cccc2c(Cl)cccc12)N1CCCNCC1
REPORTED_RESULT: -0.8
//
COMPOUND: CC(C)N(CCO)c1nc(Nc2cccc(Cl)c2)c2ncn(C(C)C)c2n1
REPORTED_RESULT: 2.8
//
COMPOUND: N#C/C(=C\c1ccc(O)c(O)c1)C(=O)Nc1ccccc1
REPORTED_RESULT: 0.5
//
COMPOUND: Nc1nc(Nc2ccc(S(N)(=O)=O)cc2)nn1C(=S)Nc1c(F)cccc1F
REPORTED_RESULT: 8.6
//
COMPOUND: COc1ccc(Cl)cc1NC(=O)Nc1cc(C)nc2ccccc12
REPORTED_RESULT: 0.4
//
COMPOUND: CC[C@H](CO)Nc1nc(NCc2ccccc2)c2ncn(C(C)C)c2n1
REPORTED_RESULT: 0.3
//
COMPOUND: Oc1cc(O)cc(/C=C/c2ccc(O)c(O)c2)c1
REPORTED_RESULT: 0.5
